Assay: Pharmacokinetics in moderate hepatic impairment vs matched normal subjects (Example A-13)
Conditions: human, plasma, 400 mg, Tmax, Mean, Multiple Dose 400 mg QD, Moderate
REPORTED METRIC: Tmax (h)

COC(=O)[C@@H]1CC2=CC(=O)CC[C@]2(C)[C@@]23O[C@@H]2C[C@@]2(C)[C@@H](CC[C@@]24CCC(=O)O4)[C@H]13 [Eplerenone]	2.81

* * *

Test: Pharmacokinetics and absorption of [14C]eplerenone in the rat (Example A-9)
Type: in vivo
Conditions: plasma; IV 15 mg/kg, male rat
REPORTED METRIC: clearance (mL/min/kg)

COC(=O)[C@@H]1CC2=CC(=O)CC[C@]2(C)[C@@]23O[C@@H]2C[C@@]2(C)[C@@H](CC[C@@]24CCC(=O)O4)[C@H]13 [Eplerenone]	20.3

* * *

Test: Pharmacokinetics in moderate hepatic impairment vs matched normal subjects (Example A-13)
Settings: human, plasma, 400 mg, Cmax, Mean, Single Dose 400 mg, Normal
REPORTED METRIC: Cmax (ng/mL)

COC(=O)[C@@H]1CC2=CC(=O)CC[C@]2(C)[C@@]23O[C@@H]2C[C@@]2(C)[C@@H](CC[C@@]24CCC(=O)O4)[C@H]13	3840

* * *

Experiment: Pharmacokinetics and absorption of [14C]eplerenone in the rat (Example A-9)
Type: in vivo
Conditions: rat, plasma; oral 15 mg/kg, female rats
REPORTED METRIC: Cmax (ng/mL)

COC(=O)[C@@H]1CC2=CC(=O)CC[C@]2(C)[C@@]23O[C@@H]2C[C@@]2(C)[C@@H](CC[C@@]24CCC(=O)O4)[C@H]13	3540

* * *

Assay: Pharmacokinetics in moderate hepatic impairment vs matched normal subjects (Example A-13);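 note: impaired subjects were Child-Pugh Class B with ascites, compared against healthy volunteers matched for sex, age, weight and smoking, blood sampled before and after dosing on Days 1 and 7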
Conditions: human, plasma, 400 mg, Cmax, Mean, Multiple Dose 400 mg QD, Normal
REPORTED METRIC: Cmax (ng/mL)

COC(=O)[C@@H]1CC2=CC(=O)CC[C@]2(C)[C@@]23O[C@@H]2C[C@@]2(C)[C@@H](CC[C@@]24CCC(=O)O4)[C@H]13	3880

Value source: patent US20070191324A1
